Values compiled from ChEMBL document CHEMBL4020833.

Below, each entry is listed with its recorded AUC at 2 h.
Experiment: AUC in Sprague-Dawley rat at 3 mg/kg, iv measured up to 120 mins by LC-MS/MS analysis
Format: ADME, organism-based
Parameters: dose 3 mg/kg, time < 2 hr, route intravenous
Settings: in vivo
experimentalReadout: AUC at 2 h (ng·h/mL)

INSERT INTO measurements (chemicalsmiles, experimentalreadout, reported) VALUES
  ('CCCC[C@@H]1NC(=O)[C@@H]2CCCN2C(=O)[C@@H](NC(=O)[C@H](CCCCN)NC(=O)[C@H](Cc2cnc[nH]2)NC(=O)[C@H](CO)NC(=O)[C@H](CC(C)C)NC(=O)[C@H](CCCNC(=N)N)NC(=O)[C@@H]2CCCN2C(=O)[C@H](CCCNC(=N)N)NC(=O)[C@@H]2CCC(=O)N2)C/C=C\C[C@@H](C(=O)O)NC(=O)[C@@H]2CCCN2C1=O', 'AUC at 2 h', 4100),
  ('CSCC[C@H](NC(=O)[C@@H]1CCCN1C(=O)CNC(=O)[C@H](CCCCN)NC(=O)[C@H](Cc1cnc[nH]1)NC(=O)[C@H](CO)NC(=O)[C@H](CC(C)C)NC(=O)[C@H](CCCNC(=N)N)NC(=O)[C@@H]1CCCN1C(=O)[C@H](CCCNC(=N)N)NC(=O)[C@@H]1CCC(=O)N1)C(=O)N1CCC[C@H]1C(=O)N[C@@H](Cc1ccccc1)C(=O)O', 'AUC at 2 h', 3.33),
  ('CCCC[C@@H]1NC(=O)[C@@H]2CCCN2C(=O)[C@@H](NC(=O)[C@H](CCCCN)NC(=O)[C@H](Cc2cnc[nH]2)NC(=O)[C@H](CO)NC(=O)[C@H](CC(C)C)NC(=O)[C@H](CCCNC(=N)N)NC(=O)[C@@H]2CCCN2C(=O)[C@H](CCCNC(=N)N)NC(=O)[C@@H]2CCC(=O)N2)CCN(S(=O)(=O)c2ccccc2[N+](=O)[O-])C/C=C\C[C@@H](C(=O)O)NC(=O)[C@@H]2CCCN2C1=O', 'AUC at 2 h', 2800);

====

Molecular target: Apelin receptor (Homo sapiens, UniProt P35414)
Sequence (P35414 whole entry): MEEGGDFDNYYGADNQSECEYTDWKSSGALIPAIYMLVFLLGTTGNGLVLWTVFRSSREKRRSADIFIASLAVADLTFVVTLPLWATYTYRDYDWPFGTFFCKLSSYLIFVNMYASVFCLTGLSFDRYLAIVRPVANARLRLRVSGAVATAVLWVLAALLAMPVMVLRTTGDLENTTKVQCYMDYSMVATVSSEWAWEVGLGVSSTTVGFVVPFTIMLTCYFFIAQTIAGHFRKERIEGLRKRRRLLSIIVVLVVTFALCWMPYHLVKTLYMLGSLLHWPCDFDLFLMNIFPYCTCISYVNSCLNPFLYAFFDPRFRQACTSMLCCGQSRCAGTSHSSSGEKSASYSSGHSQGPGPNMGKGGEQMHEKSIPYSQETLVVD
Assay: Activity at human APJ receptor expressed in HEK293 cells assessed as dissociation of Galphai1 from Gbetagamma subunit after 5 mins by BRET assay
Format: cell-based
Starred links: 1 amine or outer side, 2 acyl side, 3 side chain; linkers in the order of their positions; H or OH if unused. Positions of bridges follow the written chain, without caps; N, C: chain ends. Non-standard residues stand in square brackets, D forms with d. Residues, ends and D or L forms follow the SMILES beside them. X2 = N=C(N)NCCC[C@@H](C(=O)[*:2])N(CC=[*:3])[*:1]; X3 = C=CCN([C@@H](CCCNC(=N)N)C(=O)[*:2])[*:1]; AllylGly = C=CC[C@H](N)C(=O)O; pGlu = O=C1CC[C@@H](C(=O)O)N1; Nle = CCCC[C@H](N)C(=O)O
Below, each entry is listed with its recorded EC50.
experimentalReadout: EC50

INSERT INTO measurements (molecule, reported) VALUES
  ('C=CC[C@H](NC(=O)[C@H](Cc1cnc[nH]1)NC(=O)[C@H](CO)NC(=O)[C@H](CC(C)C)NC(=O)[C@H](CCCNC(=N)N)N(CC=C)C(=O)[C@@H]1CCCN1C(=O)[C@H](CCCNC(=N)N)NC(=O)[C@@H]1CCC(=O)N1)C(=O)NCC(=O)N1CCC[C@H]1C(=O)N[C@@H](CCCC)C(=O)N1CCC[C@H]1C(=O)N[C@@H](Cc1ccccc1)C(=O)O ([pGlu]RP[X3]LSH[AllylGly]GP[Nle]PF-OH)', '2.1 nM'),
  ('CC(C)C[C@H](NC(=O)[C@H](CCCNC(=N)N)NC(=O)[C@@H]1CCCN1C(=O)[C@H](CCCNC(=N)N)NC(=O)[C@@H]1CCC(=O)N1)C(=O)N[C@@H](CO)C(=O)N[C@H]1C/C=C\C[C@@H](C(=O)N2CCC[C@H]2C(=O)N[C@@H](Cc2ccccc2)C(=O)O)NC(=O)[C@@H]2CCCN2C(=O)CNC(=O)[C@H](CCCCN)NC1=O ([pGlu]RPRLS[AllylGly]KGP[AllylGly]PF-OH; staple (Z) 7-11)', '20 nM'),
  ('CCCC[C@@H]1NC(=O)[C@@H]2CCCN2C(=O)CNC(=O)[C@@H](NC(=O)[C@H](Cc2cnc[nH]2)NC(=O)[C@H](CO)NC(=O)[C@H](CC(C)C)NC(=O)[C@H](CCCNC(=N)N)NC(=O)[C@@H]2CCCN2C(=O)[C@H](CCCNC(=N)N)NC(=O)[C@@H]2CCC(=O)N2)C/C=C\C[C@@H](C(=O)N[C@@H](Cc2ccccc2)C(=O)O)NC1=O ([pGlu]RPRLSH[AllylGly]GP[Nle][AllylGly]F-OH; staple (Z) 8-12)', '30 nM'),
  ('C=CC[C@H](NC(=O)[C@H](CC(C)C)NC(=O)[C@H](CCCNC(=N)N)NC(=O)[C@@H]1CCCN1C(=O)[C@H](CCCNC(=N)N)N(CC=C)C(=O)[C@@H]1CCC(=O)N1)C(=O)N[C@@H](Cc1cnc[nH]1)C(=O)N[C@@H](CCCCN)C(=O)NCC(=O)N1CCC[C@H]1C(=O)N[C@@H](CCCC)C(=O)N1CCC[C@H]1C(=O)N[C@@H](Cc1ccccc1)C(=O)O', '5.7 nM'),
  ('CCCC[C@H](NC(=O)[C@@H]1CCCN1C(=O)CNC(=O)[C@@H]1C/C=C\CN(C(=O)[C@@H]2CCCN2C(=O)[C@H](CCCNC(=N)N)NC(=O)[C@@H]2CCC(=O)N2)[C@@H](CCCNC(=N)N)C(=O)N[C@@H](CC(C)C)C(=O)N[C@@H](CO)C(=O)N[C@@H](Cc2cnc[nH]2)C(=O)N1)C(=O)N1CCC[C@H]1C(=O)N[C@@H](Cc1ccccc1)C(=O)O ([pGlu]RP[X2]LSH[AllylGly]GP[Nle]PF-OH; staple (Z) 4-8)', '19 nM');
